Source listed as the NIST ThermoML archive (doi:10.1021/je800246v).

test.method.notes: activity coefficient (dimensionless); of the first substance listed, at infinite dilution; xn = mol fraction of the nth substance listed
stated.conditions: 334.8 K; 101 kPa; Liquid; Chromatography; x1 = 0
Attribute: activity coefficient
attribute.measured: activity coefficient

| molecule | attribute.measured | quantitative.result |
| --- | --- | --- |
| CCC(C)=O [butanone] + CCCCn1cc[n+](C)c1.F[P-](F)(F)(F)(F)F | activity coefficient | 0.983 |
| Cc1cccc(C)c1 [1,3-dimethylbenzene] + CCCCn1cc[n+](C)c1.F[P-](F)(F)(F)(F)F | activity coefficient | 2.36 |
| CCC(O)CC [3-pentanol] + CCCCn1cc[n+](C)c1.F[P-](F)(F)(F)(F)F | activity coefficient | 3.78 |
| CCCO [propan-1-ol] + CCCCn1cc[n+](C)c1.F[P-](F)(F)(F)(F)F | activity coefficient | 3.18 |

###

test.method.notes: activity coefficient (dimensionless); of the first substance listed, at infinite dilution; xn = mol fraction of the nth substance listed
stated.conditions: 315.9 K; 101 kPa; Liquid; Chromatography; x1 = 0
activity coefficient strictly less than 3 = condition met. Otherwise condition not met.

| compound | label.value |
| --- | --- |
| Cc1ccc(C)cc1 [1,4-dimethylbenzene] + CCCCn1cc[n+](C)c1.F[P-](F)(F)(F)(F)F | condition met |
| CCCO [propan-1-ol] + CCCCn1cc[n+](C)c1.F[P-](F)(F)(F)(F)F | condition not met |
| Cc1ccccc1C [1,2-dimethylbenzene] + CCCCn1cc[n+](C)c1.F[P-](F)(F)(F)(F)F | condition met |
| Cc1cccc(C)c1 [1,3-dimethylbenzene] + CCCCn1cc[n+](C)c1.F[P-](F)(F)(F)(F)F | condition met |
| CCCCO [butan-1-ol] + CCCCn1cc[n+](C)c1.F[P-](F)(F)(F)(F)F | condition not met |
| CCC(O)CC [3-pentanol] + CCCCn1cc[n+](C)c1.F[P-](F)(F)(F)(F)F | condition not met |
| CCCCCO [pentan-1-ol] + CCCCn1cc[n+](C)c1.F[P-](F)(F)(F)(F)F | condition not met |
| CC(C)CO [2-methyl-1-propanol] + CCCCn1cc[n+](C)c1.F[P-](F)(F)(F)(F)F | condition not met |
| CCC(C)O (stereo not drawn) [butan-2-ol] + CCCCn1cc[n+](C)c1.F[P-](F)(F)(F)(F)F | condition not met |
| CCCC(C)O (stereo not drawn) [pentan-2-ol] + CCCCn1cc[n+](C)c1.F[P-](F)(F)(F)(F)F | condition not met |
| CO [methanol] + CCCC[n+]1ccc(C)cc1.F[B-](F)(F)F | condition met |
| CC(C)=O [acetone] + CCCC[n+]1ccc(C)cc1.F[B-](F)(F)F | condition met |
| CCC(C)=O [butanone] + CCCCn1cc[n+](C)c1.F[P-](F)(F)(F)(F)F | condition met |
| Cc1ccccc1 [toluene] + CCCCn1cc[n+](C)c1.F[P-](F)(F)(F)(F)F | condition met |
| CC(C)=O [acetone] + CCCCn1cc[n+](C)c1.F[P-](F)(F)(F)(F)F | condition met |
| CC(C)O [propan-2-ol] + CCCCn1cc[n+](C)c1.F[P-](F)(F)(F)(F)F | condition not met |
| CCO [ethanol] + CCCC[n+]1ccc(C)cc1.F[B-](F)(F)F | condition met |

###

test.method.notes: activity coefficient (dimensionless); of the first substance listed, at infinite dilution; xn = mol fraction of the nth substance listed
stated.conditions: 325.3 K; 101 kPa; Liquid; Chromatography; x1 = 0
activity coefficient strictly less than 2 = 1. Otherwise -1.

| compound | label.value |
| --- | --- |
| CCCC(C)O (stereo not drawn) [pentan-2-ol] + CCCCn1cc[n+](C)c1.F[P-](F)(F)(F)(F)F | -1 |
| CCC(O)CC [3-pentanol] + CCCCn1cc[n+](C)c1.F[P-](F)(F)(F)(F)F | -1 |
| CCO [ethanol] + CCCCn1cc[n+](C)c1.F[P-](F)(F)(F)(F)F | -1 |
| CC(C)O [propan-2-ol] + CCCCn1cc[n+](C)c1.F[P-](F)(F)(F)(F)F | -1 |
| CCC(C)O (stereo not drawn) [butan-2-ol] + CCCCn1cc[n+](C)c1.F[P-](F)(F)(F)(F)F | -1 |
| CC(C)=O [acetone] + CCCC[n+]1ccc(C)cc1.F[B-](F)(F)F | 1 |
| Cc1cccc(C)c1 [1,3-dimethylbenzene] + CCCCn1cc[n+](C)c1.F[P-](F)(F)(F)(F)F | -1 |
| CC(C)CCO [3-methylbutan-1-ol] + CCCCn1cc[n+](C)c1.F[P-](F)(F)(F)(F)F | -1 |
| CC(=O)CC(C)=O [2,4-pentanedione] + CCCCn1cc[n+](C)c1.F[P-](F)(F)(F)(F)F | 1 |
| CCCCCO [pentan-1-ol] + CCCCn1cc[n+](C)c1.F[P-](F)(F)(F)(F)F | -1 |
| Cc1ccc(C)cc1 [1,4-dimethylbenzene] + CCCCn1cc[n+](C)c1.F[P-](F)(F)(F)(F)F | -1 |
| CCC(C)=O [butanone] + CCCCn1cc[n+](C)c1.F[P-](F)(F)(F)(F)F | 1 |
| CCC(C)=O [butanone] + CCCC[n+]1ccc(C)cc1.F[B-](F)(F)F | 1 |
| CC(C)CO [2-methyl-1-propanol] + CCCCn1cc[n+](C)c1.F[P-](F)(F)(F)(F)F | -1 |
| Cc1ccccc1 [toluene] + CCCCn1cc[n+](C)c1.F[P-](F)(F)(F)(F)F | 1 |
| CC(C)=O [acetone] + CCCCn1cc[n+](C)c1.F[P-](F)(F)(F)(F)F | 1 |
| Cc1ccccc1C [1,2-dimethylbenzene] + CCCCn1cc[n+](C)c1.F[P-](F)(F)(F)(F)F | -1 |

###

test.method.notes: activity coefficient (dimensionless); of the first substance listed, at infinite dilution; xn = mol fraction of the nth substance listed
stated.conditions: 315.9 K; 101 kPa; Liquid; Chromatography; x1 = 0
attribute.measured: activity coefficient

| compound | quantitative.result |
| --- | --- |
| CCC(C)=O [butanone] + CCCC[n+]1ccc(C)cc1.F[B-](F)(F)F | 1.57 |
| CO [methanol] + CCCCn1cc[n+](C)c1.F[P-](F)(F)(F)(F)F | 2.16 |
| CC(C)CCO [3-methylbutan-1-ol] + CCCCn1cc[n+](C)c1.F[P-](F)(F)(F)(F)F | 7.71 |
| CC(=O)CC(C)=O [2,4-pentanedione] + CCCCn1cc[n+](C)c1.F[P-](F)(F)(F)(F)F | 1.15 |
